- Test system: Mus musculus
- test details: In vivo activity of compound was measured against P388 lymphocytic leukemia at the dose of 12.5 mg/kg.
- Assay type: functional
readout name: T/C (%)
Quick note: give the figure in %, leave out the unit.

Exam item: Any idea what T/C was measured for CC(C)NC(=O)OCc1c(COC(=O)NC(C)C)c(-c2ccc(F)cc2F)n2c1CCC2 ?
Marked response: 180

Exam item: Using the record for CNC(=O)OCc1c(COC(=O)NC)c(-c2c(F)cccc2F)n2c1CCC2 , report its T/C.
Marked response: 148

Exam item: What value of measured T/C is listed for CNC(=O)OCc1c(COC(=O)NC)c(-c2ccc(F)cc2)n2c1CCC2 ?
Marked response: 128

Exam item: Need T/C of CC(C)NC(=O)OCc1c(COC(=O)NC(C)C)c(-c2ccc(F)c(F)c2)n2c1CCC2 , thanks.
Marked response: 178

Exam item: # get_value(readout='T/C', item= CNC(=O)OCc1c(COC(=O)NC)c(-c2cccc(F)c2F)n2c1CCC2 )
Marked response: 149

Exam item: Need T/C, item CC(C)NC(=O)OCc1c(COC(=O)NC(C)C)c(-c2ccc(Cl)c(Cl)c2)n2c1CCC2
Marked response: 177
